details: in ethanol, 323.15 K
READOUT: solubility (mole fraction)

Reported solubility (mole fraction), compound O=C1C2C3C=CC(C3)C2C(=O)N1O (stereo unspecified) : ____
0.131

----------
conditions: in 2-propoxyethanol, 303.15 K
READOUT: solubility (mole fraction)
Numbers only.

solubility (mole fraction) for O=C1C2C3C=CC(C3)C2C(=O)N1O (stereo unspecified) ?
0.0804

----------
details: in methanol, 293.15 K
READOUT: solubility (mole fraction)

Dear colleague, I am looking for the recorded solubility (mole fraction) of the following molecule: O=C1C2C3C=CC(C3)C2C(=O)N1O (stereo unspecified)
0.102

----------
conditions: in ethyl acetate, 313.15 K
READOUT: solubility (mole fraction)
Answers are plain numbers.

Item under review: O=C1C2C3C=CC(C3)C2C(=O)N1O (stereo unspecified) . Reported solubility (mole fraction)?
0.0271
